- testSystem: TGR5 (Homo sapiens, UniProt Q8TDU6)
- Sequence (Q8TDU6 1-330): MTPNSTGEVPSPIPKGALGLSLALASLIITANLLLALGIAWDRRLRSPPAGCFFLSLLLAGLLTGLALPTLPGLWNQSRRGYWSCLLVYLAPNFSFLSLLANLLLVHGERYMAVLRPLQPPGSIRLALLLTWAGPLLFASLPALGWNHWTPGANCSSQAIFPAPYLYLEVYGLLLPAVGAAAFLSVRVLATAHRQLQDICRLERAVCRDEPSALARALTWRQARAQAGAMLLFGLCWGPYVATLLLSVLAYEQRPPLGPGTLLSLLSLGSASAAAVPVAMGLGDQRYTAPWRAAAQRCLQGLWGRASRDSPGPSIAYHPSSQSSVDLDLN
- assayText: TGR5 activity: cAMP in hTGR5 CHO-k1 cells
- Type: cell-based
- Set-up: expressed in transfected cells; host or cells: CHO-k1
- conditionsUsed: 0.5 h; hTGR5 CHO cells; Ref. LCA 100% at 10 μM; read-out: hTGR5 CHO Efficacy
Property: Emax; scope: individual molecules
Just the number in %, nothing appended.

Worked examples follow.
molecule	testSystem	Emax (%)
CC[C@H]1[C@@H](O)C2C3CC[C@H]([C@H](C)CCc4nn[nH]n4)[C@@]3(C)CCC2[C@@]2(C)CC[C@@H](O)C[C@@H]12 (stereo partly drawn)	TGR5 (Homo sapiens, UniProt Q8TDU6)	99
CC[C@H]1[C@@H](O)[C@@H]2[C@H](CC[C@]3(C)[C@@H]([C@H](C)CCc4nc(=O)o[nH]4)[C@@H](O)C[C@@H]23)[C@@]2(C)CC[C@@H](O)C[C@@H]12	TGR5 (Homo sapiens, UniProt Q8TDU6)	104

Respond only with Emax recorded for CC[C@H]1[C@@H](O)C2C3CC[C@H]([C@H](C)CC(=O)NO)[C@@]3(C)CCC2[C@@]2(C)CC[C@@H](O)C[C@@H]12 (stereo partly drawn)
109

###

Property: pKa; scope: individual compounds
- assayText: pKa

Worked examples follow.
compound	pKa
CC[C@H]1[C@@H](O)C2C3CC[C@H]([C@H](C)CCc4noc(=O)[nH]4)[C@@]3(C)[C@@H](O)CC2[C@@]2(C)CC[C@@H](O)C[C@@H]12 (some centres unmarked) [Compound 11]	5.94
CC[C@H]1[C@@H](O)C2C3CC[C@H]([C@H](C)CCc4nn[nH]n4)[C@@]3(C)CCC2[C@@]2(C)CC[C@@H](O)C[C@@H]12 (some centres unmarked) [Compound 15]	5.59
CC[C@H]1[C@@H](O)C2C3CC[C@H]([C@H](C)CC(=O)NCCO)[C@@]3(C)CCC2[C@@]2(C)CC[C@@H](O)C[C@@H]12 (some centres unmarked) [Compound 19]	14.3
CC[C@H]1[C@@H](O)C2C3CC[C@H]([C@H](C)CC(=O)NCCOS(=O)(=O)[O-])[C@@]3(C)CCC2[C@@]2(C)CC[C@@H](O)C[C@@H]12.[Na+] (some centres unmarked) [Compound 21]	< 1

Would you kindly look at the next entry?
Respond only with pKa recorded for CC[C@H]1[C@@H](O)[C@@H]2[C@H](C[C@H](O)[C@]3(C)[C@@H]([C@H](C)C[C@H](F)C(=O)O)CC[C@@H]23)[C@@]2(C)CC[C@@H](O)C[C@@H]12 [Compound 8]
2.82

Just for reference, patent US10800807B2 is where these values come from.
